Biological target: Nea1
Test: receptor affinity
Conditions: high affinity
metric: Kd

Problem: Request - read-out Kd | tested on Nea1 | compound COc1cc(C(C)=O)ccc1OCCCN1CCC(c2noc3cc(F)ccc23)CC1 [Iloperidone]
Result: < 10 nM

----------
Target: other dopaminergic, adrenergic, and serotoninergic receptors
Assay: receptor affinity
Details: moderate affinity
pKd: −log10 of the molar value.
metric: pKd

Problem: Checklist item: pKd tested on other dopaminergic, adrenergic, and serotoninergic receptors, entry COc1cc(C(C)=O)ccc1OCCCN1CCC(c2noc3cc(F)ccc23)CC1 , value?
Result: 7.00 to 8.00

----------
Target: UniProt P18825
Sequence (P18825 whole entry): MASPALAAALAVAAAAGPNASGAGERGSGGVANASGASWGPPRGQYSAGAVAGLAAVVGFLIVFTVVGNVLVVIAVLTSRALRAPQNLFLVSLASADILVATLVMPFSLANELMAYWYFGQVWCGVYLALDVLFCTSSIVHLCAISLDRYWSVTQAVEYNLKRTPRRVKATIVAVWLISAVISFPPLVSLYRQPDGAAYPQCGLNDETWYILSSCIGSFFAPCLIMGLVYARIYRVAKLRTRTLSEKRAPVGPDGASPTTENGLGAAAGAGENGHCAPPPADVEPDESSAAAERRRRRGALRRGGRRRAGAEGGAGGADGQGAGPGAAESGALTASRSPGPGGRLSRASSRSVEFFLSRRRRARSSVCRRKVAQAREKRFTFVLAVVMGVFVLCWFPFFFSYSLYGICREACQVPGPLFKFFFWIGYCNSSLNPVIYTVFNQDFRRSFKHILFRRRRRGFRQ
metric: Kd

Problem: Need Kd of COc1cc(C(C)=O)ccc1OCCCN1CCC(c2noc3cc(F)ccc23)CC1 [Iloperidone] , thanks.
Result: < 0.01 µM
